Provenance of the data: ChEMBL document CHEMBL3046963

test system: Nakataea oryzae; assay: Fungicidal activity against Magnaporthe salvinii by agar dilution method; type: functional
parameter: MIC

Worked examples, 3 compounds total:
>  <smilesStr>
NC(=O)c1c(N)oc2c(Cl)cc(Cl)cc2c1=O

>  <MIC>
> 100 µg/mL

$$$$
>  <smilesStr>
CC(C)(C)c1ccc2oc3nc[nH]c(=O)c3c(=O)c2c1

>  <MIC>
> 100 µg/mL

$$$$
>  <smilesStr>
NC(=O)c1c(N)oc2c(Br)cc(Br)cc2c1=O

>  <MIC>
> 100 µg/mL

$$$$

We next turn to a different compound, shown below.
Lookup: # query: MIC | item O=c1[nH]cnc2oc3ccccc3c(=O)c12 | system: Nakataea oryzae
Found: > 100 µg/mL
